Test system: SF-295 CNS
Assay: NCI-60 one-dose screen, 48 h
Details: 10 µM unless noted
Description: Cells are grown in 96 well plates and exposed to the test compound for 48 hours. Compounds are tested at a single concentration, which is 10^-5 M for most compounds. The reported endpoint is percent growth (GI% or GIPRCNT), where numbers from 0 - 100% represent growth inhibition, and numbers from -100% - 0 represent cell death. For example, a value of 40 represents 60% growth inhibition. A value of 0 means no net growth occurred over the course of the experiment. […]
This is part of a sample that, as a whole, favours compounds with a hit. Of some 83,000 tested, about 20% had one in any assay. Calls of active or inactive are those of the source. How the source made its calls: active means growth percent below 10; inactive means the rest.
Can you answer with just one of these options? y (active), n (inactive)

Please review the following examples before continuing.
compound: Fc1ccc(COc2ccc(Nc3ncnc4sc5c(c34)CCCC5)cc2)cc1
assignedCategory: n
--
compound: Cc1ccc(-c2cc(C(=O)N3N=C(c4ccc(N)cc4)CC3c3ccc(Cl)cc3)c3ccccc3n2)cc1 (centres undefined)
assignedCategory: n
--
compound: COc1cc(-c2nc(SCCC(C)C)nc(N3CCOCC3)c2C#N)cc(OC)c1OC
assignedCategory: n
--
compound: COc1ccc2nc3cc(Cl)ccc3c(NCCN)c2c1
assignedCategory: y

Ask | What was the test verdict on `Cc1nc2sc(C(=O)Nc3ccccc3)c(N)c2cc1C(=O)/C=C/c1ccccc1` ?
Reply | n

Ask | Quick one: `COc1cc(Nc2ncccc2NC(=O)c2cn(Cc3cccc(Oc4ccccc4)c3)nn2)cc(OC)c1`
Reply | n

Ask | Quick one: `COc1ccc2c(c1)c(-c1ccc(-c3cn(C)c4ccc(OC)cc34)[nH]1)cn2C`
Reply | n

Ask | Quick one: `CCCNc1nc2ccccc2c2c(=O)c3cccc(Cl)c3sc12`
Reply | n

Ask | Quick one: C[Se]C(=O)CC1=C2C=C(F)C=CC2/C(=C\c2ccc(S(C)=O)cc2)C1C (centres undefined)
Reply | n

Ask | Quick one: CCOC(=O)C1=C(c2ccccc2)N=c2s/c(=C/c3ccc(Br)cc3)c(=O)n2C1c1ccc(O)cc1 (centres undefined)
Reply | n

The values you see were collected from PubChem BioAssay (NCI).
